- TARGET OR SYSTEM: T1, recombinant human extracellular domain of IGF2R (human, UniProt P11717 41-2304)
- T1 construct: extracellular domain; Recombinant, immobilized on plates; also called hIGF2R-ECD; human IGF2R ectodomain (ECD)
- METHOD: phage ELISA on hIGF2R-ECD
- Protocol: After the second selection round, 94 phage clones were randomly picked and assessed for binding to hIGF2R-ECD in a phage ELISA. Clones showing affinity were analyzed by restriction enzyme analysis using Hinfl and then categorized according to their restriction pattern. From each category, multiple clones were selected, and the amino acid sequences of these binders were identified (Table 2).
MEASUREMENT TYPE: binding result

Look over these answered cases.
13F4 (VHH, On phage in the phage ELISA; tail applies to the purified protein) VHH: EVQLVESGGGLVQAGGSLRLSCVASGSIFSINYMAWYRQTPGKEREVVASMSRRSDSTYLADAVQGRFTISRNNAGNTMYLQMNSLKPEDTALYYCKANDYWGQGTQVTVSS | binds
13A3 (VHH, On phage in the phage ELISA; tail applies to the purified protein) VHH: EVQLVESGGGLVQAGGSLRLSCAASGSIFRLNYMAWYRQAPGKEREVVASMSRRSDSTYLADAVQGRFTISMNNAGNTMYLQMNSLKPEDTALYYCKANDYWGQGTQVTVSS | binds
13E5 (VHH, On phage in the phage ELISA; tail applies to the purified protein) VHH: EVQLVESGGGLVQAGGSLRLSCAASGLTFSRYTMSWYRQAPGKEREVVAAISSGDSTYHEDSVKGRFIISRDNAKNTVYLQMNSLKTEDTAVYYCRANGPGTYWGQGTQVTVSS | binds
13B12 (VHH, On phage in the phage ELISA; tail applies to the purified protein) VHH: EVQLVESGGGLVQAGGSLRLSCAASGIIFGANTVGWYRQVPGKERDVVASITSVDSTYYGDSVRGRFTISRDNAKNTVYLQMNSLKPEDTAIYYCRARTTDGSYWGQGTQVTVSS | binds
13A2 (VHH, On phage in the phage ELISA; tail applies to the purified protein) VHH: EVQLVESGGGLVQAGGSLRLSCAASGIIFSANTVGWYRQVPGKERDVVASITSGDSTYYGDSVRDRFTISRDNAKNTVYLQMNSLKPDDTAIYYCRARTTDGSYWGQGTQVTVSS | binds
13A8 (VHH, On phage in the phage ELISA; purified from E. coli in the other assays) VHH: EVQLVESGGGLVPAGGSLRLSCAASGRTFSNYAMGWFRQAPGKERKFVATISWSGGVTYYADSVKGRFTISRDNAKNTVYLLMNSLKPEDTAVYYCAAKRDSSSYDHRRYDYWGQGTQVTVSS | binds
13D11 (VHH, On phage in the phage ELISA; tail applies to the purified protein) VHH: EVQLVESGGGLVQAGGSLRLSCAASGSIFSINYMAWYRQAPGKEREVVASMSWRRDSTYLADSVQGRFTISRNNAKNTMYLQMNSLKPEDTALYYCKANDYWGQGTQVTVSS | binds
13B7 (VHH, On phage in the phage ELISA; tail applies to the purified protein) VHH: EVQLVESGGGLVQAGGSLRLSCAASRSISPMGWYRQAPGKQRELVAIMPSSGTPIYADSVQGRFTISRDNAKNTVYLQMNSLKPEDTAVYYCNVGGGYWGQGTQVTVSS | binds

Consider the additional binder presented here.
Give the measured binding result for 13G12 (VHH, the first entry is used; On phage in the phage ELISA) VHH: EVQLVESGGGLVQAGGSLRLSCAASGRAFSISSMSWFRQAPGKERVVVASIAWSGDSTYYADSVQGRFTISKDNAKNTLSLQMNSLKPEDTAVYYCSAYTQVSVNNRYWGQGTQVTVSS
binds

Reference for the values: patent US20240325562A1
